Entries and their measured speed of sound follow.
- CONDITION LABEL: 318.65 K; 101.33 kPa; Liquid; Pulse-echo method
± gives the expanded uncertainty stated by the source.
QUANTITY NAME: speed of sound

> print(dat)
                                   compound   quantity.name    observed.value
1  CCCCC(=O)[O-].C[NH2+]CCO [2-hydroxy-N-methylethanaminium pentanoate]  speed of sound  1485.3 ± 2.1 m/s
2  CCCC(=O)[O-].C[NH2+]CCO [N-methyl-2-hydroxyethylammonium butanoate]  speed of sound  1550.3 ± 2.1 m/s
3  CC(C)C(=O)[O-].C[NH2+]CCO [2-hydroxy-N-methylethanaminium isobutyrate]  speed of sound  1553.4 ± 2.1 m/s
4  C[NH2+]CCO.O=C[O-] [2-hydroxy-N-methylethanaminium formate]  speed of sound  1775.3 ± 2.2 m/s
5  CCC(=O)[O-].C[NH2+]CCO [2-hydroxy-N-methylethanaminium propionate]  speed of sound  1629.4 ± 2.1 m/s
